target: cathepsin L (Homo sapiens); construct: purchased Calbiochem 219402; assay: Inhibition of cathepsin L; format: biochemical; details: Table III; 1 uM; read-out: Cat L % I @ 1 uM
Sequence (P07711 114-288 limits assumed): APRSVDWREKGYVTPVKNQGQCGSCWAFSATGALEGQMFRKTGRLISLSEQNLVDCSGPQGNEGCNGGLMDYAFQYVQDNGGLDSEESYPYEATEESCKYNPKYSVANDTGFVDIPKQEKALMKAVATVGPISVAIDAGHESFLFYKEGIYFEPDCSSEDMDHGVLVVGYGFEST
Sequence (P07711 292-333 limits assumed): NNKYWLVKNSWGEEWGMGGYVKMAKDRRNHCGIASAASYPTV
Square brackets hold non-standard residues; d marks the D form. Peptide text beside a SMILES is read from it. * marks the point of attachment. Tos = Cc1ccc(S(=O)(=O)*)cc1; dΔPro = O=C(O)[C@H]1C=CCN1; Bn = c1ccc(C*)cc1; Ms = CS(=O)(=O)*
outcomeMeasure: inhibition at 1 µM (%)
Give the value, in units of %, as a plain number.

Problem: For the compound shown here, CS(=O)(=O)N[C@H](COCc1ccccc1)C(=O)N[C@H](C=O)Cc1ccc(OCc2ccccc2)cc1 [Compound 90] (Ms-[dS](Bn)-Tyr(Bn)-aldehyde) , give the reported inhibition at 1 µM.
Solution: 99

Problem: # query: inhibition at 1 µM of entry `CS(=O)(=O)N[C@H](COCc1ccccc1)C(=O)N[C@H](C=NO)Cc1ccccc1`
Solution: 99

Problem: Value lookup for inhibition at 1 µM; key = `CCNC(=O)OC[C@H](Cc1ccccc1)NC(=O)[C@H]1CCCN1S(=O)(=O)c1ccc(C)cc1`
Solution: 14

Problem: Bench note: what inhibition at 1 µM did `CS(=O)(=O)N[C@H](CS(=O)(=O)Cc1ccccc1)C(=O)N[C@H](C=O)Cc1ccccc1` show?
Solution: 100

Problem: Reported inhibition at 1 µM for `O=C[C@H](Cc1ccccc1)NC(=O)[C@@H](COCc1ccccc1)NS(=O)(=O)c1ccccc1` : what is it?
Solution: 100

Problem: For CS(=O)(=O)NC(CCSCc1ccccc1)C(=O)N[C@H](C=O)Cc1ccccc1 (single isomer, unassigned) , what is its reported inhibition at 1 µM?
Solution: 100

Problem: Form field: reported inhibition at 1 µM of `CS(=O)(=O)N[C@H](COCc1ccccc1)C(=O)N[C@@H](Cc1ccccc1)C1N(c2ccccc2)CCN1c1ccccc1`
Solution: 100

Problem: I'd like to know its inhibition at 1 µM. The compound in question is `Cc1ccc(S(=O)(=O)O[C@H]2C[C@H](C(=O)N[C@H](C=O)Cc3ccccc3)N(S(=O)(=O)c3ccccc3)C2)cc1`
Solution: 94

Problem: Any idea what its inhibition at 1 µM is? The compound is `CCOC(OCC)[C@H](Cc1ccccc1)NC(=O)[C@@H](COCc1ccccc1)NS(C)(=O)=O`
Solution: 98

Problem: What does the data say about its inhibition at 1 µM? Entry: Cc1ccc(S(=O)(=O)N2CC=C[C@@H]2C(=O)N[C@H](C=O)Cc2ccccc2)cc1 [Compound 130] (Tos-[dΔPro]-Phe-aldehyde)
Solution: 97

Problem: May I ask what inhibition at 1 µM has been recorded for `CC(C)(C)OC(=O)N[C@H](COCc1ccccc1)C(=O)N[C@H](C=O)Cc1ccccc1` ?
Solution: 93

Values from patent US5852007A
